Test: Plasma pharmacokinetics in vivo
Details: SD, rat, plasma, iv; after i.v. dFdC 15 mg/kg, rats; read-out: initial plasma concentration
Experimental: SD rats (n = 6) were intragastrically administered Cbz-dFdC (22 mg/kg) and intravenously injected with dFdC (15 mg/kg), and 150 μL blood samples were collected from the retro-orbital route in the right eye at 0, 5, 10, 20, and 30 min and at 1, 2, 4, 6, 12, 24, and 48 h, using heparinized tubes. Without delay, the blood was directly centrifuged at 8000× g at 4 °C for 5 min. […]
OBSERVED PROPERTY: C0

Endpoint output: C0 of `Nc1ccn([C@@H]2O[C@H](CO)[C@@H](O)C2(F)F)c(=O)n1` . Value?
~15000 ng/mL
